testTarget: mixture of three Der p 2 specific recombinant human IgE clones H10, H12, P4E (human) (UniProt P01854)
Sequence (P01854 other isoform, or with tags, fused parts or gaps): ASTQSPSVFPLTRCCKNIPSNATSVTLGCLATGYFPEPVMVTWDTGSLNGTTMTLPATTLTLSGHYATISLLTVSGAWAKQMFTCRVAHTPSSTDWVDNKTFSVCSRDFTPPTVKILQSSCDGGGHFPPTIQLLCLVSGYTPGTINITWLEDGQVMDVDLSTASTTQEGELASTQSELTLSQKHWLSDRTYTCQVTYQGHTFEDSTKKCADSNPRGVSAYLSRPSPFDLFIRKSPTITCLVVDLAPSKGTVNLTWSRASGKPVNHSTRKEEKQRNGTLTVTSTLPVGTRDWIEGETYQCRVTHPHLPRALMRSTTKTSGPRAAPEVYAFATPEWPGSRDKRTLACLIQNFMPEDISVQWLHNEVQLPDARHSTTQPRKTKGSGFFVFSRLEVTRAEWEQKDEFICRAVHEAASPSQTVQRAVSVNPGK
assayText: RBL-SX38 IgE displacement, FACS
endpoint: Max effect/effect 1 µM (%)
Answers are plain numbers, in %.

For reference, reported Max effect/effect 1 µM for sdAb B2 (VHH) VHH: QVQLVESGGGLVQAGGSLRLSCAVFGSTFSNNVADWYRQAPGKQRELVARISASGATREYGDSVKGRFTISRDDAKNTMYLQMNNLKPEDTAVYRCHKIEWEDLSRKDYWGQGTQVTVS stands at 23

The reported numbers originate from patent US20250171562A1.
